These entries and their values trace back to ChEMBL document CHEMBL4196060.

tested on: M14; test: Growth inhibition of human M14 cells after 72 hrs by MTS assay; type: functional, cell-based; settings: M14, 72 h
pIC50: −log10 of the molar value.
List of pIC50 values.

>  <SMILES_REPR>
Oc1c(CN2CCCC2)cc(Cn2ncc3cc(F)ccc32)c2cccnc12

>  <VALUE_RELATION_SIGN>
=

>  <pIC50>
5.27

$$$$
>  <SMILES_REPR>
Cc1c(C)n(Cc2cc(CN3CCCC3)c(O)c3ncccc23)c2ccccc12

>  <VALUE_RELATION_SIGN>
=

>  <pIC50>
5.82

$$$$
>  <SMILES_REPR>
O=C(Cc1ccc([N+](=O)[O-])cc1)Nc1cc(CN2CCCC2)c(O)c2ncccc12

>  <VALUE_RELATION_SIGN>
=

>  <pIC50>
5.17

$$$$
>  <SMILES_REPR>
CC(C)c1ccc(COc2cc(CN3CCCC3)c(O)c3ncccc23)cc1

>  <VALUE_RELATION_SIGN>
=

>  <pIC50>
6.10

$$$$
>  <SMILES_REPR>
COc1ccc2ccn(Cc3cc(CN4CCCC4)c(O)c4ncccc34)c2c1

>  <VALUE_RELATION_SIGN>
=

>  <pIC50>
6.05

$$$$
>  <SMILES_REPR>
CCOC(=O)c1cc2cc(F)ccc2n1Cc1cc(CN2CCCC2)c(O)c2ncccc12

>  <VALUE_RELATION_SIGN>
=

>  <pIC50>
5.89

$$$$
>  <SMILES_REPR>
COc1cc(CC(=O)NCc2cc(CN3CCCC3)c(O)c3ncccc23)cc(OC)c1OC

>  <VALUE_RELATION_SIGN>
<

>  <pIC50>
4.52

$$$$
>  <SMILES_REPR>
Oc1c(CN2CCCC2)cc(Cn2cnc3c(Cl)ncnc32)c2cccnc12

>  <VALUE_RELATION_SIGN>
=

>  <pIC50>
5.39

$$$$
>  <SMILES_REPR>
Oc1c(CN2CCCC2)cc(Cn2ccc3cc(F)ccc32)c2cccnc12

>  <VALUE_RELATION_SIGN>
=

>  <pIC50>
5.72

$$$$
>  <SMILES_REPR>
O=C(NCc1ccc(Br)cc1)NCc1cc(CN2CCCC2)c(O)c2ncccc12

>  <VALUE_RELATION_SIGN>
<

>  <pIC50>
4.52

$$$$

* * *

List of Ratio IC50 values.
experiment: Resistance index, ratio of IC50 for human M14/MDR1 cells to IC50 for human M14 cells; format: functional
RECORDED_ENDPOINT: Ratio IC50

>  <SMILES_REPR>
CCOC(=O)c1cc2cc(F)ccc2n1Cc1cc(CN2CCCC2)c(O)c2ncccc12

>  <RECORDED_ENDPOINT>
Ratio IC50

>  <RESULT>
0.7

$$$$
>  <SMILES_REPR>
Cc1cc2ccccc2n1Cc1cc(CN2CCCC2)c(O)c2ncccc12

>  <RECORDED_ENDPOINT>
Ratio IC50

>  <RESULT>
0.5

$$$$
>  <SMILES_REPR>
O=C(Cc1ccc([N+](=O)[O-])cc1)Nc1cc(CN2CCCC2)c(O)c2ncccc12

>  <RECORDED_ENDPOINT>
Ratio IC50

>  <RESULT>
1.8

$$$$
>  <SMILES_REPR>
Oc1c(CN2CCCC2)cc(Cn2ccc3cc(Cl)c(Cl)cc32)c2cccnc12

>  <RECORDED_ENDPOINT>
Ratio IC50

>  <RESULT>
0.3

$$$$
>  <SMILES_REPR>
Oc1c(CN2CCCC2)cc(Cn2ccc3ccccc32)c2cccnc12

>  <RECORDED_ENDPOINT>
Ratio IC50

>  <RESULT>
2.6

$$$$
>  <SMILES_REPR>
Oc1c(CN2CCCC2)cc(Cn2ccc3ccc(Br)cc32)c2cccnc12

>  <RECORDED_ENDPOINT>
Ratio IC50

>  <RESULT>
0.2

$$$$
>  <SMILES_REPR>
O=[N+]([O-])c1cccc2c1ccn2Cc1cc(CN2CCCC2)c(O)c2ncccc12

>  <RECORDED_ENDPOINT>
Ratio IC50

>  <RESULT>
0.3

$$$$
>  <SMILES_REPR>
O=[N+]([O-])c1ccc2ccn(Cc3cc(CN4CCCC4)c(O)c4ncccc34)c2c1

>  <RECORDED_ENDPOINT>
Ratio IC50

>  <RESULT>
1

$$$$
>  <SMILES_REPR>
O=C(Cc1ccc(F)cc1)NCc1cc(CN2CCCC2)c(O)c2ncccc12

>  <RECORDED_ENDPOINT>
Ratio IC50

>  <RESULT>
0.9

$$$$
>  <SMILES_REPR>
Oc1c(CN2CCCC2)cc(Cn2ccc3cc(F)c(Cl)cc32)c2cccnc12

>  <RECORDED_ENDPOINT>
Ratio IC50

>  <RESULT>
0.5

$$$$
>  <SMILES_REPR>
O=C(Cc1ccc(C(F)(F)F)cc1)Nc1cc(CN2CCCC2)c(O)c2ncccc12

>  <RECORDED_ENDPOINT>
Ratio IC50

>  <RESULT>
1.4

$$$$
>  <SMILES_REPR>
COc1ccc2c(CC#N)cn(Cc3cc(CN4CCCC4)c(O)c4ncccc34)c2c1

>  <RECORDED_ENDPOINT>
Ratio IC50

>  <RESULT>
1.2

$$$$
>  <SMILES_REPR>
Oc1c(CN2CCCC2)cc(Cn2ccc3c(F)cccc32)c2cccnc12

>  <RECORDED_ENDPOINT>
Ratio IC50

>  <RESULT>
0.7

$$$$
>  <SMILES_REPR>
Oc1c(CN2CCCC2)cc(Cn2nnc3ccccc32)c2cccnc12

>  <RECORDED_ENDPOINT>
Ratio IC50

>  <RESULT>
1.3

$$$$
>  <SMILES_REPR>
O=C1CCN(Cc2cc(CN3CCCC3)c(O)c3ncccc23)c2ccccc21

>  <RECORDED_ENDPOINT>
Ratio IC50

>  <RESULT>
1.2

$$$$
>  <SMILES_REPR>
O=C(Cc1ccc([N+](=O)[O-])cc1)NCc1cc(CN2CCCC2)c(O)c2ncccc12

>  <RECORDED_ENDPOINT>
Ratio IC50

>  <RESULT>
2.1

$$$$
>  <SMILES_REPR>
Oc1c(CN2CCCC2)cc(Cn2ncc3cc(F)ccc32)c2cccnc12

>  <RECORDED_ENDPOINT>
Ratio IC50

>  <RESULT>
1.3

$$$$
>  <SMILES_REPR>
Cc1cccc2ccn(Cc3cc(CN4CCCC4)c(O)c4ncccc34)c12

>  <RECORDED_ENDPOINT>
Ratio IC50

>  <RESULT>
0.6

$$$$
>  <SMILES_REPR>
Oc1c(CN2CCCC2)cc(Cn2ccc3ccc(F)cc32)c2cccnc12

>  <RECORDED_ENDPOINT>
Ratio IC50

>  <RESULT>
1

$$$$
>  <SMILES_REPR>
Cc1c(C)n(Cc2cc(CN3CCCC3)c(O)c3ncccc23)c2ccccc12

>  <RECORDED_ENDPOINT>
Ratio IC50

>  <RESULT>
0.7

$$$$
>  <SMILES_REPR>
Oc1c(CN2CCCC2)cc(Cn2cnc3c(Cl)ncnc32)c2cccnc12

>  <RECORDED_ENDPOINT>
Ratio IC50

>  <RESULT>
1.9

$$$$
